conditions: in water, 293.15 K
metricName: solubility (mole fraction)

smilesrepresentation=Cl.c1ccc([C@H]2CN3CCSC3=N2)cc1 experimentalresult=0.0879

###

conditions: in methanol, 318.15 K
metricName: solubility (mole fraction)

smilesrepresentation=Cl.c1ccc([C@H]2CN3CCSC3=N2)cc1 metricname="solubility (mole fraction)" experimentalresult=0.0955

###

conditions: in n-pentanol, 323.15 K
metricName: solubility (mole fraction)

smilesrepresentation=Cl.c1ccc([C@H]2CN3CCSC3=N2)cc1 experimentalresult=0.00745

###

conditions: in n-hexanol, 293.15 K
metricName: solubility (mole fraction)

smilesrepresentation=Cl.c1ccc([C@H]2CN3CCSC3=N2)cc1 metricname="solubility (mole fraction)" experimentalresult=0.00136

###

conditions: in isopentanol, 323.15 K
metricName: solubility (mole fraction)

smilesrepresentation=Cl.c1ccc([C@H]2CN3CCSC3=N2)cc1 metricname="solubility (mole fraction)" experimentalresult=0.00873

###

conditions: in n-propanol, 318.15 K
metricName: solubility (mole fraction)

smilesrepresentation=Cl.c1ccc([C@H]2CN3CCSC3=N2)cc1 metricname="solubility (mole fraction)" experimentalresult=0.0149

###

conditions: in water, 288.15 K
metricName: solubility (mole fraction)

smilesrepresentation=Cl.c1ccc([C@H]2CN3CCSC3=N2)cc1 experimentalresult=0.0769

###

conditions: in ethanol, 283.15 K
metricName: solubility (mole fraction)

smilesrepresentation=Cl.c1ccc([C@H]2CN3CCSC3=N2)cc1 experimentalresult=0.00753

###

conditions: in isopentanol, 308.15 K
metricName: solubility (mole fraction)

smilesrepresentation=Cl.c1ccc([C@H]2CN3CCSC3=N2)cc1 experimentalresult=0.00402

###

conditions: in n-propanol, 313.15 K
metricName: solubility (mole fraction)

smilesrepresentation=Cl.c1ccc([C@H]2CN3CCSC3=N2)cc1 experimentalresult=0.013

###

conditions: in water, 290.65 K
metricName: solubility (mole fraction)

smilesrepresentation=Cl.c1ccc([C@H]2CN3CCSC3=N2)cc1 metricname="solubility (mole fraction)" experimentalresult=0.0825

###

conditions: in isobutanol, 313.15 K
metricName: solubility (mole fraction)

smilesrepresentation=Cl.c1ccc([C@H]2CN3CCSC3=N2)cc1 experimentalresult=0.00577

###

conditions: in sec-butanol, 313.15 K
metricName: solubility (mole fraction)

smilesrepresentation=Cl.c1ccc([C@H]2CN3CCSC3=N2)cc1 experimentalresult=0.00177

###

conditions: in methanol, 293.15 K
metricName: solubility (mole fraction)

smilesrepresentation=Cl.c1ccc([C@H]2CN3CCSC3=N2)cc1 metricname="solubility (mole fraction)" experimentalresult=0.0429

###

conditions: in ethanol, 288.15 K
metricName: solubility (mole fraction)

smilesrepresentation=Cl.c1ccc([C@H]2CN3CCSC3=N2)cc1 experimentalresult=0.00881

###

conditions: in DMSO, 293.15 K
metricName: solubility (mole fraction)

smilesrepresentation=Cl.c1ccc([C@H]2CN3CCSC3=N2)cc1 experimentalresult=0.0117

###

conditions: in n-propanol, 323.15 K
metricName: solubility (mole fraction)

smilesrepresentation=Cl.c1ccc([C@H]2CN3CCSC3=N2)cc1 experimentalresult=0.0169

###

conditions: in n-butanol, 293.15 K
metricName: solubility (mole fraction)

smilesrepresentation=Cl.c1ccc([C@H]2CN3CCSC3=N2)cc1 experimentalresult=0.00311

###

conditions: in n-butanol, 288.15 K
metricName: solubility (mole fraction)

smilesrepresentation=Cl.c1ccc([C@H]2CN3CCSC3=N2)cc1 experimentalresult=0.00236

###

conditions: in n-pentanol, 293.15 K
metricName: solubility (mole fraction)

smilesrepresentation=Cl.c1ccc([C@H]2CN3CCSC3=N2)cc1 experimentalresult=0.00161

###

conditions: in DMSO, 323.15 K
metricName: solubility (mole fraction)

smilesrepresentation=Cl.c1ccc([C@H]2CN3CCSC3=N2)cc1 experimentalresult=0.0218

###

conditions: in isopropanol, 308.15 K
metricName: solubility (mole fraction)

smilesrepresentation=Cl.c1ccc([C@H]2CN3CCSC3=N2)cc1 experimentalresult=0.00275

###

conditions: in water, 298.15 K
metricName: solubility (mole fraction)

smilesrepresentation=Cl.c1ccc([C@H]2CN3CCSC3=N2)cc1 experimentalresult=0.101

###

conditions: in isopentanol, 298.15 K
metricName: solubility (mole fraction)

smilesrepresentation=Cl.c1ccc([C@H]2CN3CCSC3=N2)cc1 metricname="solubility (mole fraction)" experimentalresult=0.00234

###

conditions: in water, 300.65 K
metricName: solubility (mole fraction)

smilesrepresentation=Cl.c1ccc([C@H]2CN3CCSC3=N2)cc1 metricname="solubility (mole fraction)" experimentalresult=0.106

###

conditions: in n-hexanol, 318.15 K
metricName: solubility (mole fraction)

smilesrepresentation=Cl.c1ccc([C@H]2CN3CCSC3=N2)cc1 experimentalresult=0.00437

###

conditions: in sec-butanol, 298.15 K
metricName: solubility (mole fraction)

smilesrepresentation=Cl.c1ccc([C@H]2CN3CCSC3=N2)cc1 metricname="solubility (mole fraction)" experimentalresult=0.00105

###

conditions: in methanol, 323.15 K
metricName: solubility (mole fraction)

smilesrepresentation=Cl.c1ccc([C@H]2CN3CCSC3=N2)cc1 experimentalresult=0.109

###

conditions: in methanol, 313.15 K
metricName: solubility (mole fraction)

smilesrepresentation=Cl.c1ccc([C@H]2CN3CCSC3=N2)cc1 experimentalresult=0.0816

###

conditions: in isobutanol, 308.15 K
metricName: solubility (mole fraction)

smilesrepresentation=Cl.c1ccc([C@H]2CN3CCSC3=N2)cc1 experimentalresult=0.00447

###

conditions: in sec-butanol, 318.15 K
metricName: solubility (mole fraction)

smilesrepresentation=Cl.c1ccc([C@H]2CN3CCSC3=N2)cc1 experimentalresult=0.00213

###

conditions: in n-butanol, 303.15 K
metricName: solubility (mole fraction)

smilesrepresentation=Cl.c1ccc([C@H]2CN3CCSC3=N2)cc1 experimentalresult=0.00542

###

conditions: in n-pentanol, 283.15 K
metricName: solubility (mole fraction)

smilesrepresentation=Cl.c1ccc([C@H]2CN3CCSC3=N2)cc1 metricname="solubility (mole fraction)" experimentalresult=0.000747

###

conditions: in n-hexanol, 303.15 K
metricName: solubility (mole fraction)

smilesrepresentation=Cl.c1ccc([C@H]2CN3CCSC3=N2)cc1 experimentalresult=0.00226

###

conditions: in n-hexanol, 308.15 K
metricName: solubility (mole fraction)

smilesrepresentation=Cl.c1ccc([C@H]2CN3CCSC3=N2)cc1 metricname="solubility (mole fraction)" experimentalresult=0.00283

###

conditions: in n-propanol, 298.15 K
metricName: solubility (mole fraction)

smilesrepresentation=Cl.c1ccc([C@H]2CN3CCSC3=N2)cc1 experimentalresult=0.00751

###

conditions: in ethanol, 318.15 K
metricName: solubility (mole fraction)

smilesrepresentation=Cl.c1ccc([C@H]2CN3CCSC3=N2)cc1 experimentalresult=0.0244

###

conditions: in n-butanol, 283.15 K
metricName: solubility (mole fraction)

smilesrepresentation=Cl.c1ccc([C@H]2CN3CCSC3=N2)cc1 metricname="solubility (mole fraction)" experimentalresult=0.00182

###

conditions: in isopentanol, 318.15 K
metricName: solubility (mole fraction)

smilesrepresentation=Cl.c1ccc([C@H]2CN3CCSC3=N2)cc1 metricname="solubility (mole fraction)" experimentalresult=0.00676

###

conditions: in DMSO, 303.15 K
metricName: solubility (mole fraction)

smilesrepresentation=Cl.c1ccc([C@H]2CN3CCSC3=N2)cc1 metricname="solubility (mole fraction)" experimentalresult=0.014

###

conditions: in n-pentanol, 308.15 K
metricName: solubility (mole fraction)

smilesrepresentation=Cl.c1ccc([C@H]2CN3CCSC3=N2)cc1 experimentalresult=0.00377

###

conditions: in n-butanol, 318.15 K
metricName: solubility (mole fraction)

smilesrepresentation=Cl.c1ccc([C@H]2CN3CCSC3=N2)cc1 experimentalresult=0.0111

###

conditions: in n-pentanol, 288.15 K
metricName: solubility (mole fraction)

smilesrepresentation=Cl.c1ccc([C@H]2CN3CCSC3=N2)cc1 experimentalresult=0.00112

###

conditions: in DMSO, 333.15 K
metricName: solubility (mole fraction)

smilesrepresentation=Cl.c1ccc([C@H]2CN3CCSC3=N2)cc1 experimentalresult=0.0265

###

conditions: in methanol, 288.15 K
metricName: solubility (mole fraction)

smilesrepresentation=Cl.c1ccc([C@H]2CN3CCSC3=N2)cc1 experimentalresult=0.0357

###

conditions: in isobutanol, 288.15 K
metricName: solubility (mole fraction)

smilesrepresentation=Cl.c1ccc([C@H]2CN3CCSC3=N2)cc1 metricname="solubility (mole fraction)" experimentalresult=0.00131

###

conditions: in methanol, 283.15 K
metricName: solubility (mole fraction)

smilesrepresentation=Cl.c1ccc([C@H]2CN3CCSC3=N2)cc1 experimentalresult=0.0298

###

conditions: in ethanol, 313.15 K
metricName: solubility (mole fraction)

smilesrepresentation=Cl.c1ccc([C@H]2CN3CCSC3=N2)cc1 metricname="solubility (mole fraction)" experimentalresult=0.0201

###

conditions: in isopropanol, 298.15 K
metricName: solubility (mole fraction)

smilesrepresentation=Cl.c1ccc([C@H]2CN3CCSC3=N2)cc1 experimentalresult=0.00179
